- experimental-target: human CD33 A255S (human, UniProt P20138 18-364)
- Sequence (P20138 18-364 A255S limits assumed): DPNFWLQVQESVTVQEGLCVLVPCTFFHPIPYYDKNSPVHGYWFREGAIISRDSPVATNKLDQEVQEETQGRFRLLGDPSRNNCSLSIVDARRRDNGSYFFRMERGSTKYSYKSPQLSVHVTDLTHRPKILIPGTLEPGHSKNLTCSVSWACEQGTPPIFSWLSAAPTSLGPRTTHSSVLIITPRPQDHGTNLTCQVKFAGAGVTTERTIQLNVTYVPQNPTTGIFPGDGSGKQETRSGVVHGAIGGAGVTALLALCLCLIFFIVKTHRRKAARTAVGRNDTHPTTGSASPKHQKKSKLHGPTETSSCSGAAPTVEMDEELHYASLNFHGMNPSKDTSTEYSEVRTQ
- protocol-summary: alanine scan, flow cytometry, HEK293-T;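 further: antibody binding to each alanine-substituted CD33 mutant expressed transiently in HEK293-T, read as fluorescence minus background, mean of duplicates, relative to wild-type CD33 set as 100%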
quantity: Mean % WT Binding (% WT binding)

INSERT INTO results (binder, reported_value) VALUES
  ('Refmab #4 (antibody, V domains shown, The alanine scan used IgG or Fab) VH: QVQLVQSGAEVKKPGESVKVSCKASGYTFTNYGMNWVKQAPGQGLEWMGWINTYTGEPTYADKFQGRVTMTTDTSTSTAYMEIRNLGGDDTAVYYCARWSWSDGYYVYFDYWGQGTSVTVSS VL: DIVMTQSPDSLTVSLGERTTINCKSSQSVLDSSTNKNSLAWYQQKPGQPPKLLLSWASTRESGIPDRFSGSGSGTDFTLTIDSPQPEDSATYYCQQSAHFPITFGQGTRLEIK', 113),
  ('Refmab #3 (antibody, V domains shown, The alanine scan used IgG or Fab) VH: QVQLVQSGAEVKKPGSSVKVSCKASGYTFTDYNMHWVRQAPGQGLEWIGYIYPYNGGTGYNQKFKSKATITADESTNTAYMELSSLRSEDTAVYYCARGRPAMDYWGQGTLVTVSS VL: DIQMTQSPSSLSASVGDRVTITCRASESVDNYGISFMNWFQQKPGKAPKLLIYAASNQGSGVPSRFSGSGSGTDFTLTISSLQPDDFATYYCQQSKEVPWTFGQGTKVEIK', 97.7),
  ('Refmab #2 (antibody, V domains shown, The alanine scan used IgG or Fab) VH: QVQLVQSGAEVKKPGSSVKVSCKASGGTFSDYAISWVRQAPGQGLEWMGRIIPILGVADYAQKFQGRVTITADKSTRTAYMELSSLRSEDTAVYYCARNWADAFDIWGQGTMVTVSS VL: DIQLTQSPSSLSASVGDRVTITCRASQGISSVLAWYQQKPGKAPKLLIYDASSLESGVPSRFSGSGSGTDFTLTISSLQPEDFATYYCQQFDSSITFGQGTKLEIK', 109);
